System: HUVEC
Test: Cytotoxicity assay (monolayer), HUVEC
Assay type: cell-based
Conditions: ML (monolayer), read-out: HUVEC (EC50 Ave) ML
pEC50: −log10 of the molar value. Primed or numbered codes have the meaning given here. * marks the point of attachment. 10Ca‑PXL″ = paclitaxel attached at C10 via carbamate; PEG(11) = PEG(11) linker; 3Am = not defined here; Cbz = O=C(OCc1ccccc1)*; PEG(13) = PEG13 linker; Boc = CC(C)(C)OC(=O)*; Piv = CC(C)(C)C(=O)*; OBn = c1ccc(CO*)cc1; VBL = vinblastine
pEC50 values for the substances below.

CBz-YIYGSFK(BOC)-PEG(11)-3Am-VBL (Cbz-YIYGSFK(Boc)-{PEG(11)-3Am-VBL}; reading uncertain; also: printed as CBz-YIYGSFK(BOC)-PEG(11)-3Am-VBL) = < 7.00
Ac-YIYGSFK-PEG(13)-10Ca-PXL (N-acetyl; PEG(13) linker; paclitaxel conjugate) = < 7.00
Ac-RPRTSSF-PEG(13)-10Ca-PXL (N-acetyl; PEG(13) linker; paclitaxel conjugate) = < 7.00
CBz-YIYGSFK(CBz)-PEG(11)-3Am-VBL (Cbz-YIYGSFK(Cbz)-{PEG(11)-3Am-VBL}; reading uncertain; also: printed as CBz-YIYGSFK(CBz)-PEG(11)-3Am-VBL) = 7.00 to 7.70
CBz-E(Bzl)YIFGSFK-PEG(11)-3Am-VBL (CBz-Glu(Bzl) N-terminal; PEG(11); vinblastine conjugate) = < 7.00
Pv-GRPRTSSFAE(Bzl)G-PEG(13)-10Ca-PXL (Piv-GRPRTSSFAE(OBn)G-{PEG(13)-10Ca‑PXL″}) = < 7.00

Now look at this entry.
INPUT: Would you kindly share the measured pEC50 for Pv-E(DMAB)YIYGSFR-PEG(11)-3Am-VBL (EYIYGSFR) ?
OUTPUT: 7.00 to 7.70
